system_tested: native CaMKIIα (rat cortical homogenate) (Rattus norvegicus)
protocol_summary: Competitive inhibition of [3H]O-5-HDC binding, rat cortical homogenate
Parameters: native CaMKIIα (rat cortical homogenate); from tissue; host or cells: rat cerebral cortex homogenate
conditions_used: Ki
pKi: −log10 of the molar value.
property_measured: pKi

compound="O=C(O)C1=CC(O)CC1 (stereo not shown) [HOCPCA, 3-hydroxycyclopent-1-enecarboxylic acid]" numeric_readout=5.90

----------
system_tested: CaMKIIβ L467W/C533R (Rattus norvegicus, UniProt P08413, C533R/L467W)
Construct: host or cells: HEK293T whole-cell homogenate
Sequence (P08413 whole entry L467W/C533R): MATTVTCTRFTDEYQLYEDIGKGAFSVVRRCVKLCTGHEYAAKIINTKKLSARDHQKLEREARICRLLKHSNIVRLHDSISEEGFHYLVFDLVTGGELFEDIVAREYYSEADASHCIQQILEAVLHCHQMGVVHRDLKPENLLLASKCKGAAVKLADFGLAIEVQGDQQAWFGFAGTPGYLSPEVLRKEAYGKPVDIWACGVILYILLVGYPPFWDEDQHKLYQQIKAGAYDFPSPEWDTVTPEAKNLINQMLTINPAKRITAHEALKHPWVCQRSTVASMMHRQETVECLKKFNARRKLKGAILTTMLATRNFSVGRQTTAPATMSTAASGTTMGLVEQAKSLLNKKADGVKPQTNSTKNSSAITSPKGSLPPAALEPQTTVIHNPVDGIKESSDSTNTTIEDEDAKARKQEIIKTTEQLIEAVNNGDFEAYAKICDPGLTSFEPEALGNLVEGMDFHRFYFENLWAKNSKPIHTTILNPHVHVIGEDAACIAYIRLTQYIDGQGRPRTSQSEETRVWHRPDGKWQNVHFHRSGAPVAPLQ
protocol_summary: Displacement of [3H]O-5-HDC binding in CaMKIIβ L467W/C533R HEK293T homogenate
conditions_used: IC50, displacement of [3H]O-5-HDC
Protocol: Recombinant HEK293T whole-cell homogenate equilibrium binding experiments were performed similar to that described previously ([14]), using a 48-well assay format. […] Counts (disintegrations per minute [DPM]) were detected by liquid scintillation counting ([14]). […] Data analysis: The specific binding was determined as Total binding subtracted NSB. […]
property_measured: IC50

compound="O=C(O)CCCO [GHB, γ-hydroxybutyric acid]" system_tested="CaMKIIβ L467W/C533R (Rattus norvegicus, UniProt P08413, C533R/L467W)" result="710 µM"

----------
system_tested: native CaMKIIα (rat cortical homogenate) (Rattus norvegicus, UniProt P11275)
Sequence (P11275 whole entry): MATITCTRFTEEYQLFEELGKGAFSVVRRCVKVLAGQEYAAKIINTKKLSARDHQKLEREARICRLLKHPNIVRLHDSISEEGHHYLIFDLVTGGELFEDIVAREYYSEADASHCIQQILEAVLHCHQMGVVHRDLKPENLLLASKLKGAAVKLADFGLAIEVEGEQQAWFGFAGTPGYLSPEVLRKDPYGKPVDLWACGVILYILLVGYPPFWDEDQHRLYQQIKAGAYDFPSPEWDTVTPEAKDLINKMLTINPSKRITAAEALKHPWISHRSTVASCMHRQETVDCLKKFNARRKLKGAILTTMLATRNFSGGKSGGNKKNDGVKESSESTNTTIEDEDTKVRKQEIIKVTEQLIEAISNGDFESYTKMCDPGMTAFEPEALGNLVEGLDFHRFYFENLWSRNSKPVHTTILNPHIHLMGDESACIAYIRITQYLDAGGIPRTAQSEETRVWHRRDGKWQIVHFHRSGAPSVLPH
protocol_summary: Competitive inhibition of [3H]O-5-HDC binding, rat cortical homogenate
Design: native CaMKIIα (rat cortical homogenate); from tissue; host or cells: rat cerebral cortex homogenate
conditions_used: pKi ± S.E.M., inhibition of [3H]O-5-HDC binding, rat cortical homogenate, n = 4
pKi: −log10 of the molar value.
property_measured: pKi

compound="O=C(O)C1=CC(O)CC1 (stereo not shown) [HOCPCA, 3-hydroxycyclopent-1-enecarboxylic acid]" system_tested="native CaMKIIα (rat cortical homogenate) (Rattus norvegicus, UniProt P11275)" property_measured=pKi numeric_readout=5.93

----------
system_tested: CaMKIIβ L467W/C533R (Rattus norvegicus, UniProt P08413, C533R/L467W)
Construct: host or cells: HEK293T whole-cell homogenate
protocol_summary: Displacement of [3H]O-5-HDC binding in CaMKIIβ L467W/C533R HEK293T homogenate
conditions_used: pIC50 (value in parentheses after IC50), displacement of [3H]O-5-HDC
property_measured: IC50 (µM)

compound="O=C(O)CCCO [GHB, γ-hydroxybutyric acid]" numeric_readout=676
